Target: human GLP-1 receptor (human, UniProt P43220 24-463)
Assay: cell-based or functional assay
Bridge positions count the residues as written; N and C are the ends. Square brackets hold non-standard residues; d marks the D form. Ends that are not written are not given here. * marks the point of attachment. Acetyl(2-(4-imidazolyl)) = O=C(Cc1c[nH]cn1)*; Aib = CC(C)(N)C(=O)O
observationType: In vitro activity compared to native peptide (%) vs GLP-1
Reply with just the number (in %).

Study these solved cases before continuing.
{"columns": ["binder", "unitsLabel", "resultNumber"],
 "data": [
  ["H[Aib]QGTFTSDYSKYLDEKACKDFVQWLLDGGPSSGAPPPS (bridge 16-20) [Triple agonist of SEQ ID NO: 32]", "%", 151],
  ["Y[Aib]QGTFTSDYSKCLDERAAKEFVQWLLDHHPSSGQPPPS (bridge 16-20) [Triple agonist of SEQ ID NO: 69]", "%", 24.3],
  ["Y[Aib]QGTFTSDYSKCLDEKAAKEFVQWLLDHHPSSGQPPPS (bridge 16-20) [Triple agonist of SEQ ID NO: 68]", "%", 27.9]
]}

Here's the next entry for you.
Item {Acetyl(2-(4-imidazolyl))}-[Aib]QGTFTSDYSIAMDEIHQKDFVNWLLAQKC (bridge 15-19) [Triple agonist of SEQ ID NO: 92] has what recorded In vitro activity compared to native peptide (%) vs GLP-1?
0.8

Where these numbers come from: patent US20230381281A1
